Here, each record is paired with measured Relative cAMP EC50 data.
Biological target: T1, human GIP receptor (human) (UniProt P48546)
T1 sequence (looked up): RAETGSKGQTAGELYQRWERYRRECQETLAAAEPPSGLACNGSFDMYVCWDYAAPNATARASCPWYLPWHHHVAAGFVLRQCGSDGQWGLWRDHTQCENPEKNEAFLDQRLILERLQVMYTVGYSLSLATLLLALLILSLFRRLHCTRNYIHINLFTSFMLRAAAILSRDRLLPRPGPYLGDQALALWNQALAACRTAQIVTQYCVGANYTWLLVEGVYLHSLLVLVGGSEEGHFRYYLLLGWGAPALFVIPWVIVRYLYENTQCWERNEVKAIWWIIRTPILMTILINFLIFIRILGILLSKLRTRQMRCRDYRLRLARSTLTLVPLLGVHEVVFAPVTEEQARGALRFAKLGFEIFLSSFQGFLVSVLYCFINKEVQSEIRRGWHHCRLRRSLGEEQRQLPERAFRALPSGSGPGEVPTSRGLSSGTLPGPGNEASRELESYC
Assay: cell-based or functional assay

BINDER | Relative cAMP EC50
YXQGTFTSDXSXXLDKKAQXAFIEYLIAGGPSSGAPPPSGSE (synthetic construct; SITE 2: note = 2-Aminoisobutyric Acid; SITE 10: note = 3-(4-Pyridyl)-L-alanine; SITE 12: note = L-ornithine; SITE 13: note = alpha-methyl-leucine; SITE 17: note = Lysine is chemically modified through conjugation of the epsilon-amino group of the Lysine side chain with (gamma-Gl)) [Example 1009] | 0.13 nM
YXQGTFTSDFSKXLDKKAQXAFIEYLLEAGPSSGAPPPGEG (not fully specified; Aib, αMeL; acylated Lys; C-terminal amide; synthetic construct; SITE 2: note = 2-Aminoisobutyric Acid; SITE 13: note = alpha-methyl-leucine; SITE 17: note = Lysine is chemically modified through conjugation of the epsilon-amino group of the Lysine side chain with (2-[2-(2-Amino-ethoxy)-ethoxy]-acetyl)-(gamma-Glu)-CO-(CH2) 18-CO2H; SITE 20: n) [Example 34] | 0.122 nM
YXQGTFTSDFSKXLDKKAQXAFIEYLIEGGPSSGAPPPSEG (not fully specified; acylated side chain; synthetic construct; SITE 2: note = 2-Aminoisobutyric Acid; SITE 13: note = alpha-methyl-leucine; SITE 17: note = Lysine is chemically modified through conjugation of the epsilon-amino group of the Lysine side chain with (2-[2-(2-Amino-ethoxy)-ethoxy]-acetyl)-(gamma-Glu)-CO-gamma -gamma-(CH2)16-CO2H) [Example 49] | 0.324 nM
YXQGTFTSDFSXXLDKKAQXAFIEYLLEGGESSGAPPPSGS (synthetic construct; SITE 2: note = 2-Aminoisobutyric Acid; SITE 12: note = L-ornithine; SITE 13: note = alpha-methyl-leucine; SITE 17: note = Lysine is chemically modified through conjugation of the epsilon-amino group of the Lysine side chain with (2-[2-(2-Amino-ethoxy)-ethoxy]-acetyl)-(gamma-Glu)) [Example 145] | 0.539 nM
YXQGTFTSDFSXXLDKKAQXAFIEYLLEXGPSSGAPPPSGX (synthetic construct; SITE 2: note = 2-Aminoisobutyric Acid; SITE 12: note = L-ornithine; SITE 13: note = alpha-methyl-leucine; SITE 17: note = Lysine is chemically modified through conjugation of the epsilon-amino group of the Lysine side chain with (gamma-Glu)-(2-[2-(2-Amino-ethoxy)-ethoxy]-acetyl)) [Example 277] | 0.0672 nM
YXQGTFTSDFSQXLDXKAQXAFIEYLLEAGPSSGAPPPSGSEEE (not fully specified; synthetic construct; SITE 2: note = 2-Aminoisobutyric Acid; SITE 13: note = alpha-methyl-leucine; SITE 16: note = L-ornithine; SITE 17: note = Lysine is chemically modified through conjugation of the epsilon-amino group of the Lysine side chain with (gamma-Glu)2-CO-(CH2)16-CO2H; SITE 20: note = 2-Am) [Example 1039] | 0.118 nM
YXQGTFTSDFSQXLDKKAQXAFIEYLLEXGESSGAPPPSGS (synthetic construct; SITE 2: note = 2-Aminoisobutyric Acid; SITE 13: note = alpha-methyl-leucine; SITE 17: note = Lysine is chemically modified through conjugation of the epsilon-amino group of the Lysine side chain with (2-[2-(2-Amino-ethoxy)-ethoxy]-acetyl)2-(gamma-Glu)-CO-(CH2 )16-CO2H; SITE 20:) [Example 787] | 0.0675 nM
